Where do these numbers come from? They come from paper PMC6321168.

- assay-summary: Fecal excretion study in rats after oral NS, SF or CNS (LC–MS/MS)
- Assay type: in vivo
- condition: rat feces, oral NS 60 mg/kg, 12 h
assay-endpoint: Excretion amount (µg)
Unit µg implied. Number only.

// returns reported Excretion amount for input CC(C)=CCC[C@](C)(O[C@@H]1O[C@H](CO[C@@H]2O[C@H](CO)[C@@H](O)[C@H](O)[C@H]2O)[C@@H](O)[C@H](O)[C@H]1O)[C@H]1CC[C@]2(C)[C@@H]1[C@H](O)C[C@@H]1[C@@]3(C)CC[C@H](O[C@@H]4O[C@H](CO)[C@@H](O)[C@H](O)[C@H]4O[C@@H]4O[C@H](CO)[C@@H](O)[C@H](O)[C@H]4O)C(C)(C)[C@@H]3CC[C@]12C [ginsenoside Rb1] 29.724

* * *

- assay-summary: Fecal excretion study in rats after oral NS, SF or CNS (LC–MS/MS)
- Assay type: in vivo
- condition: rat feces, oral CNS 110 mg/kg, 36 h
Accumulative excretion amount by entry:
Unit µg implied. Number only.

The examples below pair each entry with its known result.
INSERT INTO measurements (compound, quantitative_readout) VALUES
  ('CC(C)=CCC[C@](C)(O[C@@H]1O[C@H](CO)[C@@H](O)[C@H](O)[C@H]1O)[C@H]1CC[C@]2(C)[C@@H]1[C@H](O)C[C@@H]1[C@@]3(C)CC[C@H](O[C@@H]4O[C@H](CO)[C@@H](O)[C@H](O)[C@H]4O[C@@H]4O[C@H](CO)[C@@H](O)[C@H](O)[C@H]4O)C(C)(C)[C@@H]3CC[C@]12C [ginsenoside Rd]', 20.700),
  ('CC(C)=CCC[C@](C)(O[C@@H]1O[C@H](CO)[C@@H](O)[C@H](O)[C@H]1O)[C@H]1CC[C@]2(C)[C@@H]1[C@H](O)C[C@@H]1[C@@]3(C)CC[C@H](O)C(C)(C)[C@@H]3[C@@H](O[C@@H]3O[C@H](CO)[C@@H](O)[C@H](O)[C@H]3O[C@@H]3O[C@@H](C)[C@H](O)[C@@H](O)[C@H]3O)C[C@]12C [ginsenoside Re]', 20.570),
  ('CC(C)=CCC[C@](C)(O[C@@H]1O[C@H](CO[C@@H]2O[C@H](CO)[C@@H](O)[C@H](O)[C@H]2O)[C@@H](O)[C@H](O)[C@H]1O)[C@H]1CC[C@]2(C)[C@@H]1[C@H](O)C[C@@H]1[C@@]3(C)CC[C@H](O[C@@H]4O[C@H](CO)[C@@H](O)[C@H](O)[C@H]4O[C@@H]4O[C@H](CO)[C@@H](O)[C@H](O)[C@H]4O)C(C)(C)[C@@H]3CC[C@]12C [ginsenoside Rb1]', 56.222);

// returns reported Accumulative excretion amount for input CC(C)=CCC[C@](C)(O[C@@H]1O[C@H](CO)[C@@H](O)[C@H](O)[C@H]1O)[C@H]1CC[C@]2(C)[C@@H]1[C@H](O)C[C@@H]1[C@@]3(C)CC[C@H](O)C(C)(C)[C@@H]3[C@@H](O[C@@H]3O[C@H](CO)[C@@H](O)[C@H](O)[C@H]3O)C[C@]12C [ginsenoside Rg1] 85.729

* * *

- assay-summary: Fecal excretion study in rats after oral NS, SF or CNS (LC–MS/MS)
- Assay type: in vivo
- condition: rat feces, oral CNS 110 mg/kg, 36 h
assay-endpoint: Excretion amount (µg)
Unit µg implied. Number only.

// returns reported Excretion amount for input CC(C)=CCC[C@](C)(O[C@@H]1O[C@H](CO)[C@@H](O)[C@H](O)[C@H]1O)[C@H]1CC[C@]2(C)[C@@H]1[C@H](O)C[C@@H]1[C@@]3(C)CC[C@H](O[C@@H]4O[C@H](CO)[C@@H](O)[C@H](O)[C@H]4O[C@@H]4O[C@H](CO)[C@@H](O)[C@H](O)[C@H]4O)C(C)(C)[C@@H]3CC[C@]12C [ginsenoside Rd] 9.700

// returns reported Excretion amount for input CC(C)=CCC[C@](C)(O[C@@H]1O[C@H](CO)[C@@H](O)[C@H](O)[C@H]1O)[C@H]1CC[C@]2(C)[C@@H]1[C@H](O)C[C@@H]1[C@@]3(C)CC[C@H](O)C(C)(C)[C@@H]3[C@@H](O[C@@H]3O[C@H](CO)[C@@H](O)[C@H](O)[C@H]3O[C@@H]3O[C@@H](C)[C@H](O)[C@@H](O)[C@H]3O)C[C@]12C [ginsenoside Re] 5.435

// returns reported Excretion amount for input CC(C)=CCC[C@](C)(O[C@@H]1O[C@H](CO)[C@@H](O)[C@H](O)[C@H]1O)[C@H]1CC[C@]2(C)[C@@H]1[C@H](O)C[C@@H]1[C@@]3(C)CC[C@H](O)C(C)(C)[C@@H]3[C@@H](O[C@@H]3O[C@H](CO)[C@@H](O)[C@H](O)[C@H]3O)C[C@]12C [ginsenoside Rg1] 14.365

// returns reported Excretion amount for input CC(C)=CCC[C@](C)(O[C@@H]1O[C@H](CO[C@@H]2O[C@H](CO)[C@@H](O)[C@H](O)[C@H]2O)[C@@H](O)[C@H](O)[C@H]1O)[C@H]1CC[C@]2(C)[C@@H]1[C@H](O)C[C@@H]1[C@@]3(C)CC[C@H](O[C@@H]4O[C@H](CO)[C@@H](O)[C@H](O)[C@H]4O[C@@H]4O[C@H](CO)[C@@H](O)[C@H](O)[C@H]4O)C(C)(C)[C@@H]3CC[C@]12C [ginsenoside Rb1] 8.141

* * *

- assay-summary: Urinary excretion study in rats after oral NS, SF or CNS (LC–MS/MS)
- Assay type: in vivo
- condition: rat urine, oral NS 60 mg/kg, 12 h
assay-endpoint: Accumulative excretion percentage (%)
Unit % implied. Number only.

INSERT INTO results (molecule, quantitative_readout) VALUES
  ('CC(C)=CCC[C@](C)(O[C@@H]1O[C@H](CO)[C@@H](O)[C@H](O)[C@H]1O)[C@H]1CC[C@]2(C)[C@@H]1[C@H](O)C[C@@H]1[C@@]3(C)CC[C@H](O)C(C)(C)[C@@H]3[C@@H](O[C@@H]3O[C@H](CO)[C@@H](O)[C@H](O)[C@H]3O[C@@H]3O[C@@H](C)[C@H](O)[C@@H](O)[C@H]3O)C[C@]12C [ginsenoside Re]', 0.138),
  ('CC(C)=CCC[C@](C)(O[C@@H]1O[C@H](CO)[C@@H](O)[C@H](O)[C@H]1O)[C@H]1CC[C@]2(C)[C@@H]1[C@H](O)C[C@@H]1[C@@]3(C)CC[C@H](O)C(C)(C)[C@@H]3[C@@H](O[C@@H]3O[C@H](CO)[C@@H](O)[C@H](O)[C@H]3O)C[C@]12C [ginsenoside Rg1]', 0.439),
  ('CC(C)=CCC[C@](C)(O[C@@H]1O[C@H](CO)[C@@H](O)[C@H](O)[C@H]1O)[C@H]1CC[C@]2(C)[C@@H]1[C@H](O)C[C@@H]1[C@@]3(C)CC[C@H](O[C@@H]4O[C@H](CO)[C@@H](O)[C@H](O)[C@H]4O[C@@H]4O[C@H](CO)[C@@H](O)[C@H](O)[C@H]4O)C(C)(C)[C@@H]3CC[C@]12C [ginsenoside Rd]', 0.020);

Continue with the next molecule.
// returns reported Accumulative excretion percentage for input CC(C)=CCC[C@](C)(O[C@@H]1O[C@H](CO[C@@H]2O[C@H](CO)[C@@H](O)[C@H](O)[C@H]2O)[C@@H](O)[C@H](O)[C@H]1O)[C@H]1CC[C@]2(C)[C@@H]1[C@H](O)C[C@@H]1[C@@]3(C)CC[C@H](O[C@@H]4O[C@H](CO)[C@@H](O)[C@H](O)[C@H]4O[C@@H]4O[C@H](CO)[C@@H](O)[C@H](O)[C@H]4O)C(C)(C)[C@@H]3CC[C@]12C [ginsenoside Rb1] 0.027

* * *

- assay-summary: Urinary excretion study in rats after oral NS, SF or CNS (LC–MS/MS)
- Format: in vivo
- condition: rat urine, oral NS 60 mg/kg, 36 h
assay-endpoint: Accumulative excretion percentage (%)
Unit % implied. Number only.

INSERT INTO assay_data (compound, value_units, quantitative_readout) VALUES
  ('CC(C)=CCC[C@](C)(O[C@@H]1O[C@H](CO)[C@@H](O)[C@H](O)[C@H]1O)[C@H]1CC[C@]2(C)[C@@H]1[C@H](O)C[C@@H]1[C@@]3(C)CC[C@H](O[C@@H]4O[C@H](CO)[C@@H](O)[C@H](O)[C@H]4O[C@@H]4O[C@H](CO)[C@@H](O)[C@H](O)[C@H]4O)C(C)(C)[C@@H]3CC[C@]12C [ginsenoside Rd]', '%', 0.036),
  ('CC(C)=CCC[C@](C)(O[C@@H]1O[C@H](CO[C@@H]2O[C@H](CO)[C@@H](O)[C@H](O)[C@H]2O)[C@@H](O)[C@H](O)[C@H]1O)[C@H]1CC[C@]2(C)[C@@H]1[C@H](O)C[C@@H]1[C@@]3(C)CC[C@H](O[C@@H]4O[C@H](CO)[C@@H](O)[C@H](O)[C@H]4O[C@@H]4O[C@H](CO)[C@@H](O)[C@H](O)[C@H]4O)C(C)(C)[C@@H]3CC[C@]12C [ginsenoside Rb1]', '%', 0.053),
  ('CC(C)=CCC[C@](C)(O[C@@H]1O[C@H](CO)[C@@H](O)[C@H](O)[C@H]1O)[C@H]1CC[C@]2(C)[C@@H]1[C@H](O)C[C@@H]1[C@@]3(C)CC[C@H](O)C(C)(C)[C@@H]3[C@@H](O[C@@H]3O[C@H](CO)[C@@H](O)[C@H](O)[C@H]3O)C[C@]12C [ginsenoside Rg1]', '%', 0.463);

Continue with the next compound.
// returns reported Accumulative excretion percentage for input CC(C)=CCC[C@](C)(O[C@@H]1O[C@H](CO)[C@@H](O)[C@H](O)[C@H]1O)[C@H]1CC[C@]2(C)[C@@H]1[C@H](O)C[C@@H]1[C@@]3(C)CC[C@H](O)C(C)(C)[C@@H]3[C@@H](O[C@@H]3O[C@H](CO)[C@@H](O)[C@H](O)[C@H]3O[C@@H]3O[C@@H](C)[C@H](O)[C@@H](O)[C@H]3O)C[C@]12C [ginsenoside Re] 0.141
